Listing of entries alongside the reported GI50.
- System: TK-10
- Method Summary: NCI tumour cell line growth inhibition, 48 h
Active and inactive are the calls of the source. Cut-off read from the data, not from the text of the source: active = GI50 up to about 1.1 µM and inactive = higher.

Compound | Measured Target | GI50
COc1ccc(N2C(=O)/C(=C\c3ccccc3)SC2c2cc(OC)c(OC)c(OC)c2)cc1 (configuration not stated) | TK-10 | > 100 µM (inactive)

Param item = CC1=C(C(=O)Nc2cc(F)c(F)cc2F)C(c2ccc([N+](=O)[O-])cc2)C(C(=O)Nc2cc(F)c(F)cc2F)=C(C)N1 ; retrieve measured GI50.
22.5 µM (inactive)

Return reported GI50; argument: O=C1NC(=O)C2C(=O)NC(=O)C1C2(c1ccccc1)c1ccc(Cl)cc1 (configuration not stated)
> 100 µM (inactive)

State the recorded GI50 for this entry: CCOC(=O)c1c(N)n(-c2ccccc2)c(=S)n(-c2ccccc2)c1=O
> 100 µM (inactive)
